METRIC NAME: melting point

O=C1COc2ccncc2N1 : 268 to 270 °C

Data request: Can you look up the measured melting point of CCCCOc1ccc(C=O)cc1OCC for me?
Data returned: 38 to 40 °C

Data request: So what's the measured melting point for this one? COc1ccc(C#N)cc1N
Data returned: 74 to 76 °C

Data request: // lookup melting point for Cc1cc(Br)cc(C)c1NC(=O)CCCCl
Data returned: 139 to 141 °C

Data request: Given the molecule c1cc(C2CCCNC2)[nH]n1 (stereo unspecified) , what is its reported melting point?
Data returned: 74 to 76 °C

Data request: Which melting point is reported for this molecule? NNC(=O)CN1C(=O)COc2ccccc21
Data returned: 152 to 154 °C

Data request: So what does the record say about melting point for CN(C)CCOc1ccc(C(N)=S)cc1 ?
Data returned: 142 to 144 °C

Data request: # get_value(readout='melting point', item= CCOc1ccccc1C(N)=S )
Data returned: 115 to 117 °C

Data request: melting point lookup needed for Nc1ccc2[nH]c(CCN3CCOCC3)nc2c1 , thanks.
Data returned: 201 to 203 °C

Data request: Suppose we examine the molecule Cc1cc(N)n(Cc2ccccn2)n1 ; what melting point value has been reported?
Data returned: 94 to 96 °C

Data request: What value of melting point has been reported for the following molecule? O=C1C=CC=NC1=C(O)Nc1cnccn1
Data returned: 156 to 158 °C

====

Below is a list of entries, each paired with its recorded melting point value.

O=C1CCc2cc(C(=O)CCl)c(F)cc2N1 : 257 to 259 °C

Now for another entry.
Data request: Query (molecule): O=Cc1ccc(-c2ccccc2)s1 ; field requested: melting point
Data returned: 90 to 92 °C

====

METRIC NAME: melting point

Solved entries:
Cc1cc(O)cc(=O)n1CC(=O)O : 248 to 250 °C
CC(C)c1ccccc1-n1ccnc1S : 173 to 177 °C
Nc1cc2c(cc1[N+](=O)[O-])OCCCO2 : 73 to 77 °C
COC(=O)Cc1ccc([N+](=O)[O-])s1 : 50 to 52 °C
CN1C(=O)CC(C(=O)O)C1c1ccc(Cl)c(F)c1 (stereo not given) : 225 to 227 °C

Data request: State the recorded melting point for this entry: NC(=O)NC(CCC(=O)O)C(=O)O (stereo not given)
Data returned: 161 to 163 °C

Data request: Please report the recorded melting point for O=C(O)CCc1ncc(-c2ccc(F)cc2F)o1 .
Data returned: 169 to 171 °C

Data request: State the recorded melting point for this entry: COc1cc(N)ccc1S(=O)(=O)Nc1ccc(Cl)cc1Cl
Data returned: 199 to 201 °C

Data request: Returns the measured melting point for the input compound. Input: Cc1ncc(Cl)c(C(=O)O)n1
Data returned: 130 to 132 °C

Data request: So what does the record say about melting point for Fc1ccc(C2CNCCO2)cc1 (stereo not given) ?
Data returned: 56 to 58 °C

====

METRIC NAME: melting point

O=C(O)C=Cc1cn(-c2ccccc2)nc1-c1ccccc1 : 207 to 209 °C
Cc1ccc(C(N)=O)n1C : 152 to 154 °C
Cc1nc(NC(=O)OC(C)(C)C)sc1C(N)=O : 279 to 281 °C
CC1=NN(c2ccc(F)cc2)C(=O)C1 : 148 to 150 °C
CC(C)(C)c1cccc(OCC(=O)O)c1 : 117 to 119 °C
N#Cc1ccc2nccnc2c1 : 179 to 181 °C
NNC(=O)c1ccccn1 : 95 to 100 °C
O=C(O)c1cc(S)ccc1[N+](=O)[O-] : 234 to 236 °C

Query molecule follows.
Data request: What does the data say about its melting point? Entry: COc1cc(CCl)ccc1SC
Data returned: 78 to 80 °C

These measurements were taken from a melting point compilation (Tetko et al.).
